Target: T1, human CD73 (huCD73) protein, antigen of the Biacore assay (human, UniProt P21589 27-547, limits assumed)
T1 construct: also called human CD73 antigen
T1 sequence (looked up): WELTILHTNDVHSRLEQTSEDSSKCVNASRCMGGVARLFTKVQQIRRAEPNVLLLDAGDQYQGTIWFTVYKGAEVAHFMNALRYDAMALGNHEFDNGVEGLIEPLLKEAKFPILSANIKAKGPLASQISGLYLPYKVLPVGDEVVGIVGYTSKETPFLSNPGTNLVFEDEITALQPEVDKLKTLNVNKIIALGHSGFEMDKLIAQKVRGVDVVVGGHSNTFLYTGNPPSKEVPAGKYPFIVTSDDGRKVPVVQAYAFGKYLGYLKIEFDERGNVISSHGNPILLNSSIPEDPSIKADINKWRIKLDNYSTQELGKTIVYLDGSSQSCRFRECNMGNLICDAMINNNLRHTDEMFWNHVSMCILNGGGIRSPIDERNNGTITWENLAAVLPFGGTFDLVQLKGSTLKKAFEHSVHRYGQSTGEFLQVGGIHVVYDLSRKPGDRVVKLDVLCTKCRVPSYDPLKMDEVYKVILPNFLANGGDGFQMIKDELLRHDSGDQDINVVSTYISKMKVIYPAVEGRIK
Assay: SPR Biacore T200; antibody captured on Protein A chip, CD73 in flow; 1:1 Langmuir
This section presents binders with their documented pKd values.
Bear in mind: pKd is minus log10 of a mol/L concentration; give just that figure.

Worked examples follow.
Hab110.22 (antibody, V domains shown, VL2 + VH2; recombined with human heavy and light constant regions) VH: EVQLVQSGAEVKKPGASVKVSCKASGYTFTSYTMHWVRQAPGQRLEWMGYINPNSFYIEYNQKFKDRVTITADTSASTAYMELSSLRSEDTAVYYCARGDYDLFYDMDNWGQGTTVTVSS VL: DIQMTQSPSSLSASVGDRVTITCRASQDIGNSLNWLQQKPGKAIKRLIYATFRLDSGVPSRFSGSRSGTEYTLTISSLQPEDFATYYCQQYASFPWTFGGGTKVEIK    9.83
Hab127.22 (antibody, V domains shown, VL2 + VH2; recombined with human heavy and light constant regions) VH: EVQLVQSGAEVKKPGASVKVSCKASGYTFTAYFMNWVMQAPGQGLEWMGRIYHNNGDTFYSQKFKGRVTMTVDKSTSTVYMELSSLRSEDTAVYYCATSYVGDWGQGTTVTVSS VL: DIQMTQSPSSLSASVGDRVTITCRASQDIGDSLNWLQQKPGKAPKRLIYATSSLDSGVPSRFSGSGSGTEYTLTISSLQPEDFATYYCLQYASFPWTFGGGTKVEIK    9.53
Hab108.62 (antibody, V domains shown, VL6 + VH2; full-length antibody) VH: EVTLKESGPVLVKPTETLTLTCTVSGFSLSSYGIQWIRQPPGKLLEWLAVIWSGGSADYNAAFISRLTISKDTSKSQVVLTMTNMDPVDTATYYCAGQYGSVWGQGTLVTVSS VL: DIQMTQSPSSLSASVGDRVTITCRASQDIGDRLNWLQQKPGGAIKRLIYATSSLDSGVPKRFSGSGSGTEYTLTISSLQPEDFATYYCLQYAGSWTFGGGTKVEIK    9.42
CH110 (antibody, V domains shown, also called chimeric antibody of mab110) VH: QVQLQQSGAELARPGASVQMSCKASGYIFTSYTMHWVKQRPGQGLEWIGYINPNSFYIEYNQKFKDKATLTADTSSSTAYMQLSSLTSEDSAVYYCARGDYDLFYDMDNWGQGTSVTVSS VL: DIQMTQSPSSLSASLGERVSLTCRASQDIGNSLNWLQQEPDGTIKRLIYATFRLDSGVPKRFSGSRSGSDYSLTISSLESEDFVDYYCQQYASFPWTFGGGTKLEIK    9.58

Now take the following binder into account.
Exercise: Fill in: pKd of Hab127.21 (antibody, V domains shown, VL2 + VH1; recombined with human heavy and light constant regions) VH: EVQLVQSGAEVKKPGASVKVSCKASGYTFTAYFMNWVRQAPGQGLEWMGRIYHNNGDTFYSQKFKGRVTMTVDKSTSTVYMELSSLRSEDTAVYYCATSYVGDWGQGTTVTVSS VL: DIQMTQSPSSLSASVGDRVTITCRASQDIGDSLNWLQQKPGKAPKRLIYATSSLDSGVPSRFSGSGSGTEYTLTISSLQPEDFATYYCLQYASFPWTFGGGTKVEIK is ___
Key: 9.48
